Test system: BDF1 mice, P388 leukemia ip, median survival T/C
Experiment: NCI In Vivo Anticancer Drug Screen. Data for tumor model P388 Leukemia (intraperitoneal) in B6D2F1 (BDF1) mice
Settings: endpoint: median survival time; dose: 400.0 mg/kg/injection; schedule: Q04DX003 (ip); vehicle: saline
Inconclusive results and toxic doses are left out. How the source made its calls: active means survival T/C of 150% or more; inactive means T/C below 125% in these data. Non-standard residues stand in square brackets, D forms with d. Residues, ends and D or L forms follow the SMILES beside them. ξ: configuration not given here. *: point of attachment. Boc = CC(C)(C)OC(=O)*; ξP = O=C(O)C1CCCN1
Labels: active, inactive

                                    compound                           target_of_assay  assigned_category
 0  COc1ccc(/C=C/C(=N\O)c2ccc(OC)c(OC)c2)cc1OC  BDF1 mice, P388 leukemia ip, median survival T/C           inactive
 1                   Oc1ccc(N=Cc2ccccc2O)cc1  BDF1 mice, P388 leukemia ip, median survival T/C           inactive
 2                    O=CN(c1ccccc1)c1ccccc1  BDF1 mice, P388 leukemia ip, median survival T/C           inactive
 3  COC(=O)CNC(=O)C1CCCN1C(=O)OC(C)(C)C (stereo not given) (Boc-[ξP]-Gly-OMe)  BDF1 mice, P388 leukemia ip, median survival T/C           inactive
 4           O=[N+]([O-])c1ccc(Nc2ccncc2)cc1  BDF1 mice, P388 leukemia ip, median survival T/C           inactive
 5  O=C(O)C1=NN(c2cc(Cl)c(S(=O)(=O)O)cc2Cl)C(=O)C1  BDF1 mice, P388 leukemia ip, median survival T/C           inactive
 6                               CN(C)C(=S)S  BDF1 mice, P388 leukemia ip, median survival T/C           inactive
 7                O=c1[nH]cc(CCCO)c(=O)[nH]1  BDF1 mice, P388 leukemia ip, median survival T/C           inactive
 8                CCOc1ccc(Br)cc1/C=C/C(C)=O  BDF1 mice, P388 leukemia ip, median survival T/C           inactive
 9  NC(Cc1cccc(NP(=S)(N2CC2)N2CC2)c1)C(=O)O (stereo not given)  BDF1 mice, P388 leukemia ip, median survival T/C             active
10                            S=C(S)N1CCOCC1  BDF1 mice, P388 leukemia ip, median survival T/C           inactive
11  c1ccc2c(c1)Sc1cnccc1N2CC1CO1 (stereo not given)  BDF1 mice, P388 leukemia ip, median survival T/C           inactive
12  Nc1nc2c(c(=O)[nH]1)N(C=O)C(CNc1ccc(C(=O)N[C@@H](CCC(=O)O)C(=O)O)cc1)CN2 (stereo not given in full)  BDF1 mice, P388 leukemia ip, median survival T/C           inactive
13                      C[n+]1ccc(/C=N/O)cc1  BDF1 mice, P388 leukemia ip, median survival T/C           inactive
14    Cc1ccc(NCCN2CCOCC2)c2c(=O)c3ccccc3sc12  BDF1 mice, P388 leukemia ip, median survival T/C           inactive
15  CN1c2c(nc(N)[nH]c2=O)NCC1CCNc1ccc(C(=O)NC(CCC(=O)O)C(=O)O)cc1 (stereo not given)  BDF1 mice, P388 leukemia ip, median survival T/C           inactive
16  CC(O)(C(=O)O)c1ccccc1 (stereo not given) (tested in a mixture with another compound)  BDF1 mice, P388 leukemia ip, median survival T/C           inactive
17  CC#CCOCC1CN(C)C(=O)O1 (stereo not given)  BDF1 mice, P388 leukemia ip, median survival T/C           inactive
18           CC1CNC(=O)O1 (stereo not given)  BDF1 mice, P388 leukemia ip, median survival T/C           inactive
19     C/C(=C/c1c(C)[nH]c(=O)[nH]c1=O)C(=O)O  BDF1 mice, P388 leukemia ip, median survival T/C           inactive
20                      O=C1CCC(=O)C12CCNCC2  BDF1 mice, P388 leukemia ip, median survival T/C           inactive
21  NC(CSC(c1ccccc1)(c1ccccc1)c1ccc(CO)cc1)C(=O)O (stereo not given)  BDF1 mice, P388 leukemia ip, median survival T/C             active
22         C1CNC2NCCNC2N1 (stereo not given)  BDF1 mice, P388 leukemia ip, median survival T/C             active
23  CC(CS(=O)(=O)O)NC(CO)(CO)CO (stereo not given)  BDF1 mice, P388 leukemia ip, median survival T/C           inactive
24         N#[N+]c1ccc2c(S(=O)(=O)O)cccc2c1O  BDF1 mice, P388 leukemia ip, median survival T/C           inactive
